The reported measurements were obtained from PubChem BioAssay AID1963962.

Tested on: 967376-340-R-J2-PDC multicell spheroid viability
Experiment: Anticancer human tumor 967376-340-R-J2-PDC patient-derived colon adenocarcinoma cell line growth inhibition [PI3K]
Conditions: second compound 1 µM; first compound 0.1 µM; active compounds read low

COMPOUND	viability, T/C, %
CC(C)NCC(C(=O)N1CCN(c2ncnc3c2C(C)CC3O)CC1)c1ccc(Cl)cc1 (stereo unspecified) + CC(Nc1ncnc2nc[nH]c12)c1cc2cccc(Cl)c2c(=O)n1-c1ccccc1	90.5
CC1(C)CCC(CN2CCN(c3ccc(C(=O)NS(=O)(=O)c4ccc(NCC5CCOCC5)c([N+](=O)[O-])c4)c(Oc4cnc5[nH]ccc5c4)c3)CC2)=C(c2ccc(Cl)cc2)C1 + COc1c(OCCCN2CCOCC2)ccc2c3n(c(=NC(=O)c4cnc(N)nc4)nc12)CCN3	28.9
Cn1nccc1Nc1nccc(-c2ccn(C(CO)c3ccc(Cl)c(F)c3)c(=O)c2)n1 (stereo unspecified) + Cc1nc(NC(=O)N2CCCC2C(N)=O)sc1-c1ccnc(C(C)(C)C(F)(F)F)c1	61
CC1(C)CCC(Nc2ncc(C(F)(F)F)c(-c3c[nH]c4c(P(C)(C)=O)c(C#N)ccc34)n2)CN1 (stereo unspecified) + Cc1nc(NC(=O)N2CCCC2C(N)=O)sc1-c1ccnc(C(C)(C)C(F)(F)F)c1	53.8
CC(C)n1nc(-c2ccc3oc(N)nc3c2)c2c(N)ncnc21 + COc1c(OCCCN2CCOCC2)ccc2c3n(c(=NC(=O)c4cnc(N)nc4)nc12)CCN3	26.5
CC(=O)c1c(C)c2cnc(Nc3ccc(N4CCNCC4)cn3)nc2n(C2CCCC2)c1=O + CC(Nc1ccc2c(c1)OCCn1cc(N3C(=O)OCC3C(F)F)nc1-2)C(N)=O	50.9
C#Cc1c(F)ccc2cc(O)cc(-c3ncc4c(N5CC6CCC(C5)N6)nc(OCC56CCCN5CC(F)C6)nc4c3F)c12 (stereo unspecified) + Cc1nc(NC(=O)N2CCCC2C(N)=O)sc1-c1ccnc(C(C)(C)C(F)(F)F)c1	68.3
C[C@@H](NC(=O)c1ncnc(N)c1Cl)c1ncc(C(=O)Nc2cc(C(F)(F)F)c(Cl)cn2)s1 + COc1c(OCCCN2CCOCC2)ccc2c3n(c(=NC(=O)c4cnc(N)nc4)nc12)CCN3	33
C[C@@H](NC(=O)c1ncnc(N)c1Cl)c1ncc(C(=O)Nc2cc(C(F)(F)F)c(Cl)cn2)s1 + CC(Nc1ncnc2nc[nH]c12)c1cc2cccc(Cl)c2c(=O)n1-c1ccccc1	97.8
CCCS(=O)(=O)Nc1ccc(F)c(C(=O)c2c[nH]c3ncc(-c4ccc(Cl)cc4)cc23)c1F + Cc1nc(NC(=O)N2CCCC2C(N)=O)sc1-c1ccnc(C(C)(C)C(F)(F)F)c1	69.1
CCN1CCN(Cc2ccc(Nc3ncc(F)c(-c4cc(F)c5nc(C)n(C(C)C)c5c4)n3)nc2)CC1 + Cc1nc(NC(=O)N2CCCC2C(N)=O)sc1-c1ccnc(C(C)(C)C(F)(F)F)c1	46.1
C#Cc1c(F)ccc2cc(O)cc(-c3ncc4c(N5CC6CCC(C5)N6)nc(OCC56CCCN5CC(F)C6)nc4c3F)c12 (stereo unspecified) + CC(Nc1ncnc2nc[nH]c12)c1cc2cccc(Cl)c2c(=O)n1-c1ccccc1	110
CNC(=O)c1ccc(N2C(=S)N(c3ccc(C#N)c(C(F)(F)F)c3)C(=O)C2(C)C)cc1F + CC(Nc1ncnc2nc[nH]c12)c1cc2cccc(Cl)c2c(=O)n1-c1ccccc1	80.3
CC1(C)CCC(Nc2ncc(C(F)(F)F)c(-c3c[nH]c4c(P(C)(C)=O)c(C#N)ccc34)n2)CN1 (stereo unspecified) + CC(Nc1ccc2c(c1)OCCn1cc(N3C(=O)OCC3C(F)F)nc1-2)C(N)=O	53.4
CC(=O)c1c(C)c2cnc(Nc3ccc(N4CCNCC4)cn3)nc2n(C2CCCC2)c1=O + Cc1nc(NC(=O)N2CCCC2C(N)=O)sc1-c1ccnc(C(C)(C)C(F)(F)F)c1	76.3
Cn1ncnc1[C@H]1c2n[nH]c(=O)c3cc(F)cc(c23)N[C@@H]1c1ccc(F)cc1 + CC(Nc1ncnc2nc[nH]c12)c1cc2cccc(Cl)c2c(=O)n1-c1ccccc1	104
CC(C)NCC(C(=O)N1CCN(c2ncnc3c2C(C)CC3O)CC1)c1ccc(Cl)cc1 (stereo unspecified) + CC(Nc1ccc2c(c1)OCCn1cc(N3C(=O)OCC3C(F)F)nc1-2)C(N)=O	59.2
C#Cc1c(F)ccc2cc(O)cc(-c3ncc4c(N5CC6CCC(C5)N6)nc(OCC56CCCN5CC(F)C6)nc4c3F)c12 (stereo unspecified) + COc1c(OCCCN2CCOCC2)ccc2c3n(c(=NC(=O)c4cnc(N)nc4)nc12)CCN3	40.9
C=CC(=O)N1CCN(c2nc(=O)n(-c3c(C)ccnc3C(C)C)c3nc(-c4c(O)cccc4F)c(F)cc23)C(C)C1 (stereo unspecified) + Cc1nc(NC(=O)N2CCCC2C(N)=O)sc1-c1ccnc(C(C)(C)C(F)(F)F)c1	65.7
Cn1ncnc1[C@H]1c2n[nH]c(=O)c3cc(F)cc(c23)N[C@@H]1c1ccc(F)cc1 + COc1c(OCCCN2CCOCC2)ccc2c3n(c(=NC(=O)c4cnc(N)nc4)nc12)CCN3	26.9
CNC(=O)c1ccc(N2C(=S)N(c3ccc(C#N)c(C(F)(F)F)c3)C(=O)C2(C)C)cc1F + Cc1nc(NC(=O)N2CCCC2C(N)=O)sc1-c1ccnc(C(C)(C)C(F)(F)F)c1	70

* * *

Tested on: 967376-340-R-J2-PDC multicell spheroid viability
Assay: Anticancer human tumor 967376-340-R-J2-PDC cell line growth inhibition [PI3K];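 further: luminescence used as surrogate of cell viability; spheroids exposed to agents for 7 days before read-out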
Settings: second compound 0.1 µM; first compound 1 µM; active compounds read low
OBSERVABLE: viability, T/C (%)

MOLECULE	ASSAY_RESULT
CC1(C)CCC(Nc2ncc(C(F)(F)F)c(-c3c[nH]c4c(P(C)(C)=O)c(C#N)ccc34)n2)CN1 (stereo not given) + COc1c(OCCCN2CCOCC2)ccc2c3n(c(=NC(=O)c4cnc(N)nc4)nc12)CCN3	45.5
CCCS(=O)(=O)Nc1ccc(F)c(C(=O)c2c[nH]c3ncc(-c4ccc(Cl)cc4)cc23)c1F + Cc1nc(NC(=O)N2CCCC2C(N)=O)sc1-c1ccnc(C(C)(C)C(F)(F)F)c1	80
Cn1nccc1Nc1nccc(-c2ccn(C(CO)c3ccc(Cl)c(F)c3)c(=O)c2)n1 (stereo not given) + CC(Nc1ncnc2nc[nH]c12)c1cc2cccc(Cl)c2c(=O)n1-c1ccccc1	128
CC1(C)CCC(CN2CCN(c3ccc(C(=O)NS(=O)(=O)c4ccc(NCC5CCOCC5)c([N+](=O)[O-])c4)c(Oc4cnc5[nH]ccc5c4)c3)CC2)=C(c2ccc(Cl)cc2)C1 + CC(Nc1ncnc2nc[nH]c12)c1cc2cccc(Cl)c2c(=O)n1-c1ccccc1	87.3
CCN1CCN(Cc2ccc(Nc3ncc(F)c(-c4cc(F)c5nc(C)n(C(C)C)c5c4)n3)nc2)CC1 + COc1c(OCCCN2CCOCC2)ccc2c3n(c(=NC(=O)c4cnc(N)nc4)nc12)CCN3	34.9
CNC(=O)c1ccc(N2C(=S)N(c3ccc(C#N)c(C(F)(F)F)c3)C(=O)C2(C)C)cc1F + CC(Nc1ccc2c(c1)OCCn1cc(N3C(=O)OCC3C(F)F)nc1-2)C(N)=O	81.1
C=CC(=O)N1CCN(c2nc(=O)n(-c3c(C)ccnc3C(C)C)c3nc(-c4c(O)cccc4F)c(F)cc23)C(C)C1 (stereo not given) + COc1c(OCCCN2CCOCC2)ccc2c3n(c(=NC(=O)c4cnc(N)nc4)nc12)CCN3	66
CNC(=O)c1ccc(N2C(=S)N(c3ccc(C#N)c(C(F)(F)F)c3)C(=O)C2(C)C)cc1F + Cc1nc(NC(=O)N2CCCC2C(N)=O)sc1-c1ccnc(C(C)(C)C(F)(F)F)c1	88.5
C[C@@H](NC(=O)c1ncnc(N)c1Cl)c1ncc(C(=O)Nc2cc(C(F)(F)F)c(Cl)cn2)s1 + COc1c(OCCCN2CCOCC2)ccc2c3n(c(=NC(=O)c4cnc(N)nc4)nc12)CCN3	62.7
CC(Cn1ccc(-c2ccc(C#N)c(Cl)c2)n1)NC(=O)c1cc(C(C)O)[nH]n1 (stereo not given) + COc1c(OCCCN2CCOCC2)ccc2c3n(c(=NC(=O)c4cnc(N)nc4)nc12)CCN3	67.5

* * *

Test system: 967376-340-R-J2-PDC multicell spheroid viability
Experiment: Anticancer human tumor 967376-340-R-J2-PDC cell line growth inhibition [PI3K];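 further: luminescence used as surrogate of cell viability; spheroids exposed to agents for 7 days before read-out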
Conditions: second compound 0.316 µM; first compound 0.0316 µM; active compounds read low

MOLECULE	viability, T/C
C=CC(=O)N1CCN(c2nc(=O)n(-c3c(C)ccnc3C(C)C)c3nc(-c4c(O)cccc4F)c(F)cc23)C(C)C1 (configuration not stated) + CC(Nc1ncnc2nc[nH]c12)c1cc2cccc(Cl)c2c(=O)n1-c1ccccc1	105%
CC1(C)CCC(CN2CCN(c3ccc(C(=O)NS(=O)(=O)c4ccc(NCC5CCOCC5)c([N+](=O)[O-])c4)c(Oc4cnc5[nH]ccc5c4)c3)CC2)=C(c2ccc(Cl)cc2)C1 + Cc1nc(NC(=O)N2CCCC2C(N)=O)sc1-c1ccnc(C(C)(C)C(F)(F)F)c1	88.2%
Cn1ncc(Cl)c1-c1cc(C(=O)NC(CN)Cc2cccc(F)c2)sc1Cl (configuration not stated) + CC(Nc1ncnc2nc[nH]c12)c1cc2cccc(Cl)c2c(=O)n1-c1ccccc1	87.2%
CC(C)n1nc(-c2ccc3oc(N)nc3c2)c2c(N)ncnc21 + Cc1nc(NC(=O)N2CCCC2C(N)=O)sc1-c1ccnc(C(C)(C)C(F)(F)F)c1	58.7%
CNC(=O)c1ccc(N2C(=S)N(c3ccc(C#N)c(C(F)(F)F)c3)C(=O)C2(C)C)cc1F + Cc1nc(NC(=O)N2CCCC2C(N)=O)sc1-c1ccnc(C(C)(C)C(F)(F)F)c1	64.2%
Cn1ncc(Cl)c1-c1cc(C(=O)NC(CN)Cc2cccc(F)c2)sc1Cl (configuration not stated) + Cc1nc(NC(=O)N2CCCC2C(N)=O)sc1-c1ccnc(C(C)(C)C(F)(F)F)c1	72.8%
CC(C)NCC(C(=O)N1CCN(c2ncnc3c2C(C)CC3O)CC1)c1ccc(Cl)cc1 (configuration not stated) + CC(Nc1ncnc2nc[nH]c12)c1cc2cccc(Cl)c2c(=O)n1-c1ccccc1	111%
CC(Cn1ccc(-c2ccc(C#N)c(Cl)c2)n1)NC(=O)c1cc(C(C)O)[nH]n1 (configuration not stated) + Cc1nc(NC(=O)N2CCCC2C(N)=O)sc1-c1ccnc(C(C)(C)C(F)(F)F)c1	69.3%
C[C@@H](NC(=O)c1ncnc(N)c1Cl)c1ncc(C(=O)Nc2cc(C(F)(F)F)c(Cl)cn2)s1 + Cc1nc(NC(=O)N2CCCC2C(N)=O)sc1-c1ccnc(C(C)(C)C(F)(F)F)c1	65.6%
CC(C)n1nc(-c2ccc3oc(N)nc3c2)c2c(N)ncnc21 + CC(Nc1ccc2c(c1)OCCn1cc(N3C(=O)OCC3C(F)F)nc1-2)C(N)=O	44.3%
C#Cc1c(F)ccc2cc(O)cc(-c3ncc4c(N5CC6CCC(C5)N6)nc(OCC56CCCN5CC(F)C6)nc4c3F)c12 (configuration not stated) + CC(Nc1ncnc2nc[nH]c12)c1cc2cccc(Cl)c2c(=O)n1-c1ccccc1	104%
Cn1ncc(Cl)c1-c1cc(C(=O)NC(CN)Cc2cccc(F)c2)sc1Cl (configuration not stated) + COc1c(OCCCN2CCOCC2)ccc2c3n(c(=NC(=O)c4cnc(N)nc4)nc12)CCN3	59.1%
CC(C)n1nc(-c2ccc3oc(N)nc3c2)c2c(N)ncnc21 + CC(Nc1ncnc2nc[nH]c12)c1cc2cccc(Cl)c2c(=O)n1-c1ccccc1	77%
CCN1CCN(Cc2ccc(Nc3ncc(F)c(-c4cc(F)c5nc(C)n(C(C)C)c5c4)n3)nc2)CC1 + COc1c(OCCCN2CCOCC2)ccc2c3n(c(=NC(=O)c4cnc(N)nc4)nc12)CCN3	43.4%
CC(C)n1nc(-c2ccc3oc(N)nc3c2)c2c(N)ncnc21 + COc1c(OCCCN2CCOCC2)ccc2c3n(c(=NC(=O)c4cnc(N)nc4)nc12)CCN3	37.2%
CNC(=O)c1ccc(N2C(=S)N(c3ccc(C#N)c(C(F)(F)F)c3)C(=O)C2(C)C)cc1F + CC(Nc1ccc2c(c1)OCCn1cc(N3C(=O)OCC3C(F)F)nc1-2)C(N)=O	60.4%
Cn1ncnc1[C@H]1c2n[nH]c(=O)c3cc(F)cc(c23)N[C@@H]1c1ccc(F)cc1 + COc1c(OCCCN2CCOCC2)ccc2c3n(c(=NC(=O)c4cnc(N)nc4)nc12)CCN3	52.7%
CNC(=O)c1ccc(N2C(=S)N(c3ccc(C#N)c(C(F)(F)F)c3)C(=O)C2(C)C)cc1F + COc1c(OCCCN2CCOCC2)ccc2c3n(c(=NC(=O)c4cnc(N)nc4)nc12)CCN3	50.3%
C=CC(=O)N1CCN(c2nc(=O)n(-c3c(C)ccnc3C(C)C)c3nc(-c4c(O)cccc4F)c(F)cc23)C(C)C1 (configuration not stated) + COc1c(OCCCN2CCOCC2)ccc2c3n(c(=NC(=O)c4cnc(N)nc4)nc12)CCN3	50.5%
CC(=O)c1c(C)c2cnc(Nc3ccc(N4CCNCC4)cn3)nc2n(C2CCCC2)c1=O + CC(Nc1ncnc2nc[nH]c12)c1cc2cccc(Cl)c2c(=O)n1-c1ccccc1	79.3%
Cn1nccc1Nc1nccc(-c2ccn(C(CO)c3ccc(Cl)c(F)c3)c(=O)c2)n1 (configuration not stated) + COc1c(OCCCN2CCOCC2)ccc2c3n(c(=NC(=O)c4cnc(N)nc4)nc12)CCN3	58.5%
CC(C)NCC(C(=O)N1CCN(c2ncnc3c2C(C)CC3O)CC1)c1ccc(Cl)cc1 (configuration not stated) + Cc1nc(NC(=O)N2CCCC2C(N)=O)sc1-c1ccnc(C(C)(C)C(F)(F)F)c1	88.6%
